experiment: PAX8 transcriptional activity inhibition in RMG-I – RMG-I cells, luciferase, single concentration, primary screen (AID 652154); details: RMG-I TPO-luciferase reporter, SteadyGlo, 24 h; at 12.6 µM; active compounds read high;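 further: luciferase light reporting Pax8 driven TPO promoter activity; plate controls were median of neutral control wells for no effect and mitoxantrone controls for full effect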
Screen size: about 360,000 compounds; about 4,200 (1.2%) were called active. This is one part of a sample in which actives are shown more often than they occur.
readout.label: inhibition (%)
Numeric answer only, unit % assumed.

Worked cases, answers included:
QUERY: Please give the documented inhibition of COc1ccccc1NC(=O)N1[C@@H]2CNC[C@H]1C2c1ccc(-c2ccccc2C)cc1 (stereo partly drawn)
RESULT: -13.6

QUERY: Using the record for `C[C@@H]1CN([C@H](C)CO)C(=O)c2cc(C#Cc3cccnc3)cnc2O[C@@H]1CN(C)Cc1ccc(F)cc1` , state its measured inhibition.
RESULT: -16.3

Others:
QUERY: Give me measured inhibition, please, for this compound: `Oc1ccc2ccccc2c1N=Nc1nccs1`
RESULT: 90.5
